target: OCT2 (Homo sapiens, UniProt O15244); experiment: in vitro; details: human, pH 7.3
Sequence (O15244 whole entry): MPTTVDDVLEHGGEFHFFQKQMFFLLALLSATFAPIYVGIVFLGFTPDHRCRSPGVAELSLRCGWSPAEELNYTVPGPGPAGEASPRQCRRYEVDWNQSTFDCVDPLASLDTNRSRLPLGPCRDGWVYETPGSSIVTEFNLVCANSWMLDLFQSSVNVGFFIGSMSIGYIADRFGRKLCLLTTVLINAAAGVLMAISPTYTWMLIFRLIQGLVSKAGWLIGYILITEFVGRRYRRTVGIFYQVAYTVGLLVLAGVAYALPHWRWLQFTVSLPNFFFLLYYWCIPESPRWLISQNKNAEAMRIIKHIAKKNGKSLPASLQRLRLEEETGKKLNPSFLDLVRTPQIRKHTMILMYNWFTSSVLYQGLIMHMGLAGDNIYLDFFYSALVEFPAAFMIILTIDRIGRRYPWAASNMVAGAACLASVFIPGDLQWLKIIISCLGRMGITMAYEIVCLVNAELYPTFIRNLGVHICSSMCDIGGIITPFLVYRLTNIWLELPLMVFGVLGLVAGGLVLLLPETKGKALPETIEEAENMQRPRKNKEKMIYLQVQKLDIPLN
Hi all, reminder that labels come from % Inhibition of OCT2-dependent MF uptake at 20 µM (mean ± SEM), split as group 1: < 30; group 2: ≥ 30 and < 70; group 3: ≥ 70

compound="COc1ccc2c3c1O[C@H]1C[C@@H](O)C=C[C@@]31CCN(C)C2 [Galantamine]" class_label="group 2"
compound="CCCC(CCC)C(=O)O [Valproic acid]" class_label="group 1"
compound="CN1CCN2c3ncccc3Cc3ccccc3C2C1 (centres unmarked) [Mirtazapine]" class_label="group 3"
compound="N[C@@H](CC(=O)N1CCn2c(nnc2C(F)(F)F)C1)Cc1cc(F)c(F)cc1F [Sitagliptin]" class_label="group 3"
compound="CNCC[C@H](Oc1cccc2ccccc12)c1cccs1 [Duloxetine]" class_label="group 3"
compound="CN1C(=O)C(O)N=C(c2ccccc2Cl)c2cc(Cl)ccc21 (centres unmarked) [Lormetazepam]" class_label="group 3"
compound="CC12CC3CC(C)(C1)CC(N)(C3)C2 [Memantine]" class_label="group 2"
compound="Cc1nc2n(c(=O)c1CCN1CCC(c3noc4cc(F)ccc34)CC1)CCCC2 [Risperidone]" class_label="group 3"
compound="CCOC(=O)C1=C(C)NC(C)=C(C(=O)OC)C1c1cccc([N+](=O)[O-])c1 (centres unmarked) [Nitrendipine]" class_label="group 1"
compound="NCCCC[C@H](N[C@@H](CCc1ccccc1)C(=O)O)C(=O)N1CCC[C@H]1C(=O)O [Lisinopril]" class_label="group 1"
compound="C#C[C@]1(O)CC[C@H]2[C@@H]3CCc4cc(O)ccc4[C@H]3CC[C@@]21C [Ethinylestradiol]" class_label="group 2"
compound="C[C@H]1O[C@@H](O[C@H]2[C@@H](O)C[C@H](O[C@H]3[C@@H](O)C[C@H](O[C@H]4CC[C@@]5(C)[C@H](CC[C@@H]6[C@@H]5CC[C@]5(C)[C@@H](C7=CC(=O)OC7)CC[C@]65O)C4)O[C@@H]3C)O[C@@H]2C)C[C@H](O)[C@@H]1O [Digitoxin]" class_label="group 1"
compound="Cn1c(=O)c2[nH]cnc2n(C)c1=O [Theophylline]" class_label="group 1"
compound="COc1cccc(C2(O)CCCCC2CN(C)C)c1 (centres unmarked) [Tramadol]" class_label="group 2"
compound="CCC1=C(C)CN(C(=O)NCCc2ccc(S(=O)(=O)NC(=O)N[C@H]3CC[C@H](C)CC3)cc2)C1=O [Glimepiride]" class_label="group 2"
compound="O=C1Nc2ccc(Cl)cc2C(c2ccccc2Cl)=NC1O (centres unmarked) [Lorazepam]" class_label="group 2"
